Tested on: LOX IMVI
EXPERIMENT SUMMARY: NCI tumour cell line growth inhibition, 48 h
Counter-ions that a name gives are not always drawn. Activity calls are given as the source filed them. Rule as the data show it: active = GI50 up to about 1.1 µM and inactive = higher.
Possible outcomes: y for active, n for inactive

# COMPOUND, LABEL VALUE
measured = [
    ("O=C(/C=N/O)Nc1cc(Cl)c(Cl)cc1Cl", "n"),
    ("O=S(=O)(/N=C(\\NO)Nc1ccc(Cl)cc1)c1cccc2nsnc12", "n"),
    ("CN(C)CCSS(=O)(=O)O", "n"),
    ("CC1=CC(C)C/C=C/C2C3OC3(C)C(C)C3C(Cc4c[nH]c5ccccc45)NC(=O)C23C(=O)C=CC(=O)C1O (stereo not drawn)", "n"),
    ("NC(Cc1ccc(S(=O)(=O)O)cc1)C(=O)NC(Cc1ccc(S(=O)(=O)O)cc1)C(=O)NC(Cc1ccc(S(=O)(=O)O)cc1)C(=O)NC(Cc1ccc(S(=O)(=O)O)cc1)C(=O)O (stereo not drawn)", "n"),
    ("CCOC(=O)NC(=O)c1cn(CC(=O)NCC(=O)NCC(=O)NCCCN2CCN(CCCNC(=O)CNC(=O)CNC(=O)Cn3cc(C(=O)NC(=O)OCC)c(=O)[nH]c3=O)CC2)c(=O)[nH]c1=O", "n"),
    ("CNC(=O)c1ccccc1[S+]1c2cccc3cccc(c23)C(=O)N1C (stereo not drawn)", "n"),
    ("COC(=O)C1CCC(C)CC1=O (stereo not drawn)", "n"),
    ("NC(=O)C(N)CC12CC3CC(CC(C3)C1)C2 (stereo not drawn)", "n"),
    ("CCOC(=O)c1nc2ccc(C(F)(F)F)cc2nc1NCc1ccc(F)cc1", "n"),
    ("CCOC(=O)N/N=C(\\CC)OCC", "n"),
    ("COc1ccc(/C=N/N=C(\\N)NO)c(OC)c1C", "n"),
    ("C#CCCOC(=O)c1ccccc1OC(C)=O", "n"),
    ("CN1CCC2(CC1)C(=O)N(NC(N)=O)C(=O)C2c1ccccc1 (stereo not drawn)", "n"),
    ("CC1(C)CC2(C)ON=C(c3ccccc3)N2c2ccccc2N1 (stereo not drawn)", "n"),
    ("CC1=NN(C(=O)c2ccc(C)cc2)C(=O)C1/N=N/c1ccccc1C(=O)O (stereo not drawn)", "n"),
    ("N#C/C(=C\\c1ccc[nH]1)C(=O)c1ccccc1", "n"),
    ("O=C(NC12CC3CC(CC(C3)C1)C2)C(=O)c1c[nH]c2ccccc12", "n"),
    ("N/N=C(/C(=O)Nc1cccc(Cl)c1)C(C(=O)c1ccc(O)cc1O)C1OC(=O)c2ccccc21 (stereo not drawn)", "n"),
    ("C[C@]12CCC(=O)C=C1CC[C@@H]1[C@@H]2CC[C@]2(C)C(=O)/C(=C/c3ccncc3)C[C@@H]12", "n"),
    ("CCCCC(C(=O)C(=O)Nc1ccc(C)cc1C)C(=O)C(C)C (stereo not drawn)", "n"),
    ("CCC1CC(C)=CCN1S(=O)(=O)c1ccc(C)cc1 (stereo not drawn)", "n"),
    ("CNC(=O)CCC(NC(C)=O)C(=O)NC(Cc1ccc(NC(=O)CCCCC(C)=O)cc1)C(=O)NC(CCC(=O)NC)C(=O)NC (stereo not drawn)", "n"),
    ("NC(=O)c1c2c(n3ccccc13)C(=O)c1ccccc1C2=O", "n"),
    ("O=C(O)c1c2c(c(O)c3c1CN(C1CCCCC1)CO3)OCN(C1CCCCC1)C2", "n"),
    ("c1ccc2[nH]c(C3CCCCO3)nc2c1 (stereo not drawn)", "n"),
    ("NCCSSCCN [CYSTAMINE HYDROCHLORIDE]", "n"),
    ("O=C1c2cccc3cccc(c23)C(=O)N1CCCNCCCCNCCCN1C(=O)c2cccc3cccc(c23)C1=O", "y"),
    ("COc1ccc(OC)c(/C=C/C(=O)C(C)(C)C)c1", "n"),
    ("COc1ccc(CCn2ccc(=O)c(O)c2C)cc1OC", "n"),
    ("CC(C(=O)O)c1cnn(-c2ccccc2)c1-n1cccc1 (stereo not drawn)", "n"),
    ("CCOC(=O)[C@H]1Nc2ccc([N+](=O)[O-])cc2C2c3ccccc3CC21 (stereo partly drawn)", "n"),
    ("CSC1=N/C(=C\\c2ccccc2)C(=O)N1CN1CCOCC1", "n"),
]
